Data origin, for the record: ChEMBL document CHEMBL5543129

tested on: BT-549; assay: Cytotoxicity against human BT-549 cells incubated for 1 week by CellTiter 96 Aqueous One Solution based assay; type: functional, cell-based; conditions: BT-549, 168 h
pEC50: −log10 of the molar value.

- substance: "H-YGRKKRRQRRRRNQKFKCGE-OH"
  pEC50: 4.49
